Sourced from ChEMBL document CHEMBL5335798

Assay: Permeability of compound at pH 7.4 at 200 uM measured after 5 hrs by PAMPA assay
parameter: Papp at 5 h, 200 µM (×10⁻⁶ cm/s)

>>> obsvalue("CCC([Se]c1ccc2ccccc2c1)c1nc(N)nc(N2CCN(C)CC2)n1 (stereo unspecified)")
10.5
